Entry source: paper PMC5653977

TARGET_DESC: EGFR dimers (Homo sapiens)
Sequence (P00533 25-1210): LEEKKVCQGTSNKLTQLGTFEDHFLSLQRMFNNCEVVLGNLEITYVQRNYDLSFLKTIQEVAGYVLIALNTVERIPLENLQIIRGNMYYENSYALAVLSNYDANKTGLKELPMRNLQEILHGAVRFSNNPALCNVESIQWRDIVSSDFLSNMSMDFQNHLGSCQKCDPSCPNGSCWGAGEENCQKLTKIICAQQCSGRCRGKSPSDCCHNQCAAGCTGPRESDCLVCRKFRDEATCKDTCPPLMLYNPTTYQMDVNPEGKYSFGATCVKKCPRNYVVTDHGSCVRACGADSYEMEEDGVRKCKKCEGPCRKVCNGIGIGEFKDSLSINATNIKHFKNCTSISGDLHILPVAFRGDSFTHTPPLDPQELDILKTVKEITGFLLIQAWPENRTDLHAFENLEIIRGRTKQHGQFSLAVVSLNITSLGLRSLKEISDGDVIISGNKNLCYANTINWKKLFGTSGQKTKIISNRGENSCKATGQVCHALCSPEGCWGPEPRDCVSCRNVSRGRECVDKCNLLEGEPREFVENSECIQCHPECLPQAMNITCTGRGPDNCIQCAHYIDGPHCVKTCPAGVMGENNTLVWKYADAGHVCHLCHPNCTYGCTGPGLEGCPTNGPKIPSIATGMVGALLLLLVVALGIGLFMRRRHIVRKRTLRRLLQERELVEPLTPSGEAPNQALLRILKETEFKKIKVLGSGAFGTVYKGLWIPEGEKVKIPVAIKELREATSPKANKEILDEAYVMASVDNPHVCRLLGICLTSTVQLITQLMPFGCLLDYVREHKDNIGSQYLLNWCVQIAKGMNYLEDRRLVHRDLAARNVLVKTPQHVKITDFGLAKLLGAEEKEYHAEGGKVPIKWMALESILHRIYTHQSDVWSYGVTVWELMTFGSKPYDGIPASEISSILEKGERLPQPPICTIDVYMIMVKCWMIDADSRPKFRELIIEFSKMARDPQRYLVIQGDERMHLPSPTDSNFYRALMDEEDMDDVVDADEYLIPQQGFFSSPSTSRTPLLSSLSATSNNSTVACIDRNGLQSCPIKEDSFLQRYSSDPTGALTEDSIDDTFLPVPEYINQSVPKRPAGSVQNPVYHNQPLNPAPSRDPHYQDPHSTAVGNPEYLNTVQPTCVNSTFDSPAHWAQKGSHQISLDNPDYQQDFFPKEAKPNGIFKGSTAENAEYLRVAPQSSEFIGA
Sequence (P00533 25-1210): as above
TEST_METHOD_NOTES: ERBB dimerization split TEV assay EGFR/EGFR
Type: cell-based
RECORDED_CONDITIONS: 100 ng/ml EGF as stimulus; read-out: IC50, EGFR dimers, stimulus EGF
ENDPOINT: IC50

> print(dat)
                              sample.smiles                 target.desc  endpoint  value.observed
1  CC(=O)S[C@@H]1CC2=CC(=O)CC[C@]2(C)[C@H]2CC[C@@]3(C)[C@@H](CC[C@@]34CCC(=O)O4)[C@H]12  EGFR dimers (Homo sapiens)      IC50         1.74 µM

###

TARGET_DESC: ERBB2-NTEV-tevS-GV + ERBB3-CTEV (Homo sapiens, UniProt P04626+P21860)
TEST_METHOD_NOTES: ERBB dimerization split TEV assay ERBB2/ERBB3
RECORDED_CONDITIONS: 10 ng/ml EGFld
pIC50: −log10 of the molar value.
ENDPOINT: pIC50

> print(dat)
                                   molecule  endpoint  value.observed
1  CC(=O)S[C@@H]1CC2=CC(=O)CC[C@]2(C)[C@H]2CC[C@@]3(C)[C@@H](CC[C@@]34CCC(=O)O4)[C@H]12 [Spironolactone]     pIC50            5.03

###

TARGET_DESC: EGFR-NTEV-tevS-GV + ERBB3-CTEV (Homo sapiens, UniProt P00533+P21860)
Sequence (P00533 25-1210): as above
Sequence (P21860 20-1342): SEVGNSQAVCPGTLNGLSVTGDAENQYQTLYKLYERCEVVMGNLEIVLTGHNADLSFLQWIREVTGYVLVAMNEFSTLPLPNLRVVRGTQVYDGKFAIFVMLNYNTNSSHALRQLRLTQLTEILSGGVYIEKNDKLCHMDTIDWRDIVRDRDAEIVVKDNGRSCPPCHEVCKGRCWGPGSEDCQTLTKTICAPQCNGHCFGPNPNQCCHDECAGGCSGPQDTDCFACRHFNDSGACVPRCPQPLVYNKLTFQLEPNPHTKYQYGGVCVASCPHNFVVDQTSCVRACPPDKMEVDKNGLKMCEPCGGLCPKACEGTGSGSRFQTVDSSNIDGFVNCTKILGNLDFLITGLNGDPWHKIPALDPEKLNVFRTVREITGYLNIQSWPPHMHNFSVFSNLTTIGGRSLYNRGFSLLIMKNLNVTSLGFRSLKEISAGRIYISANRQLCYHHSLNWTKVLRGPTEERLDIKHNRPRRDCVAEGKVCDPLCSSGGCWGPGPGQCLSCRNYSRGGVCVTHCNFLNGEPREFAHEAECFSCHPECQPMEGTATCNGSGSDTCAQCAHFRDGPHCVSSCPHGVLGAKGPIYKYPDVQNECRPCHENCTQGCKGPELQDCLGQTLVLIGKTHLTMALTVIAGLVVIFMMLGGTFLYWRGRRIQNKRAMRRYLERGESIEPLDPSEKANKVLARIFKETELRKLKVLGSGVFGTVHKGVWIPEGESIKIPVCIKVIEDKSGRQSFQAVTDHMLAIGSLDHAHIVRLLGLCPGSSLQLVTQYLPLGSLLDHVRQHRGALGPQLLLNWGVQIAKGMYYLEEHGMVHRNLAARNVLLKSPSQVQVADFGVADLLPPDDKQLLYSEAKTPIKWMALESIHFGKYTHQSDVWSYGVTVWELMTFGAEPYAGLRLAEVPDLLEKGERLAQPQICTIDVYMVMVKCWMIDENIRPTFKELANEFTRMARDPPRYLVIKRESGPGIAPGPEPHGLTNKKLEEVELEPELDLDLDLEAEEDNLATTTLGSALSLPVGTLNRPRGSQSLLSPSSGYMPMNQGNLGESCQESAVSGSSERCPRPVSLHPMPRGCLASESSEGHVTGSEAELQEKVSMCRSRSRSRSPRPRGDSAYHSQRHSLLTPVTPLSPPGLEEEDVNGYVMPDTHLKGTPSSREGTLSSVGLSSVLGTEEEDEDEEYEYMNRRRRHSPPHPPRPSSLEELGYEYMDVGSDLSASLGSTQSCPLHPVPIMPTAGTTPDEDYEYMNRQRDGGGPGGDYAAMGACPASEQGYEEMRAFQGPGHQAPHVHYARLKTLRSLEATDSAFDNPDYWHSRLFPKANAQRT
TEST_METHOD_NOTES: ERBB dimerization split TEV assay EGFR/ERBB3
RECORDED_CONDITIONS: 10 ng/ml EGFld
ENDPOINT: IC50 (µM)

> print(dat)
                              sample.smiles  display.unit  value.observed
1  CC(=O)S[C@@H]1CC2=CC(=O)CC[C@]2(C)[C@H]2CC[C@@]3(C)[C@@H](CC[C@@]34CCC(=O)O4)[C@H]12            µM            2.81

###

TARGET_DESC: ERBB2-NTEV-tevS-GV + ERBB2-CTEV (Homo sapiens, UniProt P04626)
Sequence (P04626 23-1255): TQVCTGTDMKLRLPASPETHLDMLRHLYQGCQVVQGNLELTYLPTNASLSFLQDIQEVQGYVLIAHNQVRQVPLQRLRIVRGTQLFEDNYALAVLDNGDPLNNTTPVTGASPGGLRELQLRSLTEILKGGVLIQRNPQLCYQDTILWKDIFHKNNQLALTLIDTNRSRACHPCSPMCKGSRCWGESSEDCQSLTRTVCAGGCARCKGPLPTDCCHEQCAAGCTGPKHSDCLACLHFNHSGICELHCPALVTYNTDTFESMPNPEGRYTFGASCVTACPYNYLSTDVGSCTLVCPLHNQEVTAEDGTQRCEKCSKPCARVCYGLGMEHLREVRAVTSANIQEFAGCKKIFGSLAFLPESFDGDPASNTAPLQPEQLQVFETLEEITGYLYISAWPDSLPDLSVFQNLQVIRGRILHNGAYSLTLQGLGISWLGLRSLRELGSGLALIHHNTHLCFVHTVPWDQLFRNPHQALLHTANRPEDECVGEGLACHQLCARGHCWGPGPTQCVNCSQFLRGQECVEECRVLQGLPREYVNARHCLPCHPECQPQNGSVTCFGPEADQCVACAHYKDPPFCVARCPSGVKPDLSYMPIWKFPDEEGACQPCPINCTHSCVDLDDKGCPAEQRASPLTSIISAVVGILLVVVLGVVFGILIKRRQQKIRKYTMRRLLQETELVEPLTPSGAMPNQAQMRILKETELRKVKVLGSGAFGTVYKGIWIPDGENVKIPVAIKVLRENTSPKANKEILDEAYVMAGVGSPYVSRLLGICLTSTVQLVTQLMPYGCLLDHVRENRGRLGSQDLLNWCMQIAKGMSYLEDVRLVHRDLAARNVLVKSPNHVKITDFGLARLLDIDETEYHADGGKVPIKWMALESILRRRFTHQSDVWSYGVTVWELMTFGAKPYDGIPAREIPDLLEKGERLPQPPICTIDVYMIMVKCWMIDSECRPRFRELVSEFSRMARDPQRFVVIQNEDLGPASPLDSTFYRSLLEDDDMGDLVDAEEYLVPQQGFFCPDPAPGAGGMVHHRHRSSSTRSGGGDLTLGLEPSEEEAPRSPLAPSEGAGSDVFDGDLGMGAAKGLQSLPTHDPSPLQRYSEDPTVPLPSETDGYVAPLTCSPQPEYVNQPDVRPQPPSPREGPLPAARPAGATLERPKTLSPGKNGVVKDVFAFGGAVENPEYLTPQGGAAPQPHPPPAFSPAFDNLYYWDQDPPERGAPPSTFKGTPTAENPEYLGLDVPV
Sequence (P04626 23-1255): as the sequence (P04626 23-1255) above
TEST_METHOD_NOTES: ERBB dimerization split TEV assay ERBB2/ERBB2
RECORDED_CONDITIONS: 10 ng/ml EGFld
Text: Gateway recombination cloning (Life Technologies) was applied for generating plasmids. Each ORF cloned was PCR‐amplified using the Pwo proofreading DNA polymerase (Roche) and BP‐recombined into the pDONR/Zeo plasmid (Life Technologies) to yield an entry vector, which was control‐digested using BsrGI to release the insert, and sequence‐verified. […]
ENDPOINT: IC50 (µM)

> print(dat)
                              sample.smiles                               target.desc  value.observed
1  CC(=O)S[C@@H]1CC2=CC(=O)CC[C@]2(C)[C@H]2CC[C@@]3(C)[C@@H](CC[C@@]34CCC(=O)O4)[C@H]12  ERBB2-NTEV-tevS-GV + ERBB2-CTEV (Homo sapiens, UniProt P04626)            13.1

###

TARGET_DESC: EGFR-NTEV-tevS-GV + ERBB2-CTEV (Homo sapiens, UniProt P00533+P04626)
TEST_METHOD_NOTES: ERBB dimerization split TEV assay EGFR/ERBB2
RECORDED_CONDITIONS: 10 ng/ml EGFld
Text: Gateway recombination cloning (Life Technologies) was applied for generating plasmids. Each ORF cloned was PCR‐amplified using the Pwo proofreading DNA polymerase (Roche) and BP‐recombined into the pDONR/Zeo plasmid (Life Technologies) to yield an entry vector, which was control‐digested using BsrGI to release the insert, and sequence‐verified. […]
pIC50: −log10 of the molar value.
ENDPOINT: pIC50

> print(dat)
                              sample.smiles  value.observed
1  CC(=O)S[C@@H]1CC2=CC(=O)CC[C@]2(C)[C@H]2CC[C@@]3(C)[C@@H](CC[C@@]34CCC(=O)O4)[C@H]12            5.33
